B1: DLC1 (parent)
chain: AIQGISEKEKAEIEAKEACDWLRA

Variants of: B1
assay.method.text: protein stability index of a GFP-peptide fusion (GPS, HEK-293T) (PSI 1-6); higher = more stable;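 note: lentivirally expressed fusions sorted by FACS into six bins by GFP to DsRed ratio, PSI derived from sequencing read proportions per bin multiplied by bin number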
condition.notes: c terminus: a fixed tail appended
Lab note: anything with protein stability index at or over 4 counts as class 1; the rest go in class 0.

variant.identifier | classification
E17F | class 0
I5G | class 1
E12R | class 0
I13D | class 1
A1P | class 1
A15F | class 0
I2E | class 1
A11E | class 1
R23L | class 0
I5M | class 1
L22K | class 1
E9R | class 0
W21A | class 1
K16N | class 1
E7P | class 0
E17W | class 0
A11Q | class 1
E12T | class 1
I13M | class 1
G4P | class 1
